Assay procedure: NO release assay (Griess assay, phosphate buffer with L-cysteine)
Measurement parameters: % NO2− (μmol/μmol) relative to initial concentration (100 μM), L-cysteine, phosphate buffer pH 7.4, 37 °C, 1 h

| Compound | Result unit | NO Released (%) 1 h |
| --- | --- | --- |
| N#Cc1c(-c2noc(-c3cccc([N+](=O)[O-])c3)n2)no[n+]1[O-] | % | 61 |
| Cc1ccc(-c2nc(-c3no[n+]([O-])c3C#N)no2)cc1 | % | 59 |
| COc1ccc(-c2nc(-c3no[n+]([O-])c3C#N)no2)cc1 | % | 54 |
| COCc1nc(-c2no[n+]([O-])c2C#N)no1 | % | 50 |
| N#Cc1c(-c2noc(-c3ccccc3[N+](=O)[O-])n2)no[n+]1[O-] | % | 69 |
| N#Cc1c(-c2noc(-c3ccc([N+](=O)[O-])cc3)n2)no[n+]1[O-] | % | 51 |
| N#Cc1c(-c2noc(-c3ccccc3)n2)no[n+]1[O-] | % | 50 |
| N#Cc1c(-c2noc(-c3ccccc3Cl)n2)no[n+]1[O-] | % | 53 |
| CCOc1no[n+]([O-])c1S(=O)(=O)c1ccccc1 [CHF-2363, 4-ethoxy-3-phenylsulphonylfuroxan, reference compound] | % | 26 |
| N#Cc1c(-c2ncon2)no[n+]1[O-] | % | 42 |
| COc1ccc(-c2nc(-c3no[n+]([O-])c3C#N)no2)cc1OC | % | 54 |
| N#Cc1c(-c2noc(-c3ccco3)n2)no[n+]1[O-] | % | 73 |
| N#Cc1c(-c2noc(-c3ccncc3)n2)no[n+]1[O-] | % | 53 |

---

Reported IC50 values for a set of molecules
Test system: AB1 (mouse malignant mesothelioma cell line)
Assay procedure: MTT cytotoxicity assay, AB1 cells
Assay type: cell-based
Measurement parameters: 72 h exposure

| Compound string | IC50 |
| --- | --- |
| N#Cc1c(-c2noc(-c3ccncc3)n2)no[n+]1[O-] | 7.9 µM |
| N#Cc1c(-c2noc(-c3ccccc3)n2)no[n+]1[O-] | 3.4 µM |
| COc1ccc(-c2nc(-c3no[n+]([O-])c3C#N)no2)cc1OC | 3.3 µM |

---

System: AB1 (mouse malignant mesothelioma cell line)
Assay procedure: MTT cytotoxicity assay, AB1 cells
Assay type: cell-based
Measurement parameters: 72 h exposure
Binary call on IC50 with cut-off 3 µM: strictly below means Criterion met, and equality or higher means Criterion not met.

| Compound | Category |
| --- | --- |
| COc1ccc(-c2nc(-c3no[n+]([O-])c3C#N)no2)cc1 [Compound 2h] | Criterion not met |
| N#Cc1c(-c2noc(-c3ccccc3Cl)n2)no[n+]1[O-] [Compound 2j] | Criterion met |
| Cc1ccc(-c2nc(-c3no[n+]([O-])c3C#N)no2)cc1 [Compound 2g] | Criterion not met |
| N#Cc1c(-c2noc(-c3cccc([N+](=O)[O-])c3)n2)no[n+]1[O-] [Compound 2c] | Criterion met |
| N#Cc1c(-c2noc(-c3ccco3)n2)no[n+]1[O-] [Compound 2k] | Criterion met |
| N#Cc1c(-c2noc(-c3ccc([N+](=O)[O-])cc3)n2)no[n+]1[O-] [Compound 2b] | Criterion not met |
| N#Cc1c(-c2ncon2)no[n+]1[O-] [Compound 2l, 3-Cyano-4-(1,2,4-oxadiazolyl)furoxan] | Criterion not met |
| N#Cc1c(-c2noc(-c3ccccc3[N+](=O)[O-])n2)no[n+]1[O-] [Compound 2d] | Criterion met |
| COCc1nc(-c2no[n+]([O-])c2C#N)no1 [Compound 2f] | Criterion not met |
